Origin of measurements: the supplement of paper PMC11208160

assay: recombinant UMI read abundance after kanamycin selection (control-corrected) (log10(CPM+1)); higher = more efficient recombination; extreme values may be limits of the assay; sequences stand for … in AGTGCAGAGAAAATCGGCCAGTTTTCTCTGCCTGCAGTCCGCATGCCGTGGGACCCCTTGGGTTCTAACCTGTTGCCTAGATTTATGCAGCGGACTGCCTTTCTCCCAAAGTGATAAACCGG…AGGTTGGTTTCACT; site = the 11-nt donor;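 further: IS621 bridge recombinase in Escherichia coli cells against a fixed T5 target plasmid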
PROPERTY: recombinant UMI read abundance (log10)
Please reply with the value in numeric form only.

Here is how some sequences turned out for recombinant UMI read abundance (log10).
• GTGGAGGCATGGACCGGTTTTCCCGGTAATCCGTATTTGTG (site GTGCAGGCTCA) = 0.25
• TAGACTACATGGACCGGTTTTCCCGGTAATCCGTATTTGCA (site TAGATTACTTG) = 0.502
• AGAAAGGCATGGACCGGTTTTCCCGGTAATCCGTATTTGCC (site AGAAAGGCTGG) = 1.78
• GCACCTTCATGGACCGGTTTTCCCGGTAATCCGTATTTGTT (site GCACCTTCTAA) = 1.09
• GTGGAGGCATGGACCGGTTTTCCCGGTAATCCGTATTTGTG (site GTGGAGGCTCT) = 1.15

Now consider a different sequence.
Answer with reported recombinant UMI read abundance (log10) of CGTTCGACATGGACCGGTTTTCCCGGTAATCCGTATTTGTT (site CGGTCGACTAA)
0.0244
